Please respond with reported 100 nM Ag Bound for every item in the list.
Target: T1, Mouse IL2Rγ extracellular domain expressed with a C-terminal myc-myc-hexahistidine tag (mouse)
T1 construct: whole entry is the tagged construct; also called mIL-2Rg-MMH
T1 chain: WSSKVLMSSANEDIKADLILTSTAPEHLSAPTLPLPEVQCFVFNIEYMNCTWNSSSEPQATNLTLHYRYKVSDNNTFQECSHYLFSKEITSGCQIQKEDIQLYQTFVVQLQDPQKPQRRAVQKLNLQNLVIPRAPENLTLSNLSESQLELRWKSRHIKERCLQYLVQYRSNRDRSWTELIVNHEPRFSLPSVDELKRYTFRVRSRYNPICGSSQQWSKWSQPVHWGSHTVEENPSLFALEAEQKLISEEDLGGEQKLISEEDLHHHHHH
Assay: SPR Biacore 4000, anti-hFc-captured mAb, 25 C
Report the figure in RU without appending any unit label.

Input: Recorded 100 nM Ag Bound for H4H12884P (antibody, human IgG4 S228P, kappa, V domains shown, fully human anti-IL2Rgamma mAb, human IgG4 Fc) VH: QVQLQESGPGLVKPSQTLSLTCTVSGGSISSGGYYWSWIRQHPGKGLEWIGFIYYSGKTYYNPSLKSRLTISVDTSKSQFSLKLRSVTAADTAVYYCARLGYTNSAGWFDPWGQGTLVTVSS VL: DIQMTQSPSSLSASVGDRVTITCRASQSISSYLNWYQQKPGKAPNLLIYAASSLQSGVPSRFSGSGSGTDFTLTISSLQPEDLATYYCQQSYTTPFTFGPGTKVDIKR , please?
Output: 2

Input: Need 100 nM Ag Bound, item H4H12871P (antibody, human IgG4 S228P, kappa, V domains shown, fully human anti-IL2Rgamma mAb, human IgG4 Fc; also called REGN9434) VH: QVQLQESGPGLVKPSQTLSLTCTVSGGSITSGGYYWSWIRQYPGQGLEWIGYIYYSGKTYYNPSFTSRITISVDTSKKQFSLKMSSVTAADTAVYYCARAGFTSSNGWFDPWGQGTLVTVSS VL: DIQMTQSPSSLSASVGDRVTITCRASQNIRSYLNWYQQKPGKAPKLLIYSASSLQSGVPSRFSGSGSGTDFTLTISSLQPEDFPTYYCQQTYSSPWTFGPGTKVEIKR
Output: 0

Input: Which 100 nM Ag Bound value is on record for H4H12900P (antibody, human IgG4 S228P, kappa, V domains shown, fully human anti-IL2Rgamma mAb, human IgG4 Fc) VH: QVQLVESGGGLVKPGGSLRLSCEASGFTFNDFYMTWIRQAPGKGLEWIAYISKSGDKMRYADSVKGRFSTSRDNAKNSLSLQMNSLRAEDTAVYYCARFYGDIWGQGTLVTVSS VL: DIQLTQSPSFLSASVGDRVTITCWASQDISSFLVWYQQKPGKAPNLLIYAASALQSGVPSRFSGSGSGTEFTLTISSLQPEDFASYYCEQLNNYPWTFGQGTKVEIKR ?
Output: 76
